Some compounds, each annotated with its measured Activity.
tested on: Rattus norvegicus; assay: Positive inotropic activity in Sprague-Dawley rat heart assessed as left ventricle fractional shortening at 2 to 16 ug/kg/min for 3 mins by echocardiographic analysis; type: functional
Expressed in %, but write only the number.

Guide cases for Activity, answers given:
{"compound": "O=C(NCCCc1ccccc1)NCCN1CCOCC1", "Activity (%)": 24.79}
{"compound": "O=C(NCCCc1ccccc1)NCC1CCOCC1", "Activity (%)": 20.5}
{"compound": "O=C(NCCCc1ccccc1)NCc1ccccc1", "Activity (%)": 30.04}

## Task Name the reported Activity value associated with the compound COC(=O)N1CCN(Cc2cccc(NC(=O)Nc3ccc(C)nc3)c2F)CC1 [OMECAMTIV MECARBIL]
## Result 20.32

## Task What about this compound? `O=C(NCCCc1ccccc1)NCCc1ccccc1`
## Result 18.9

## Task What about this compound? O=C(NCCCc1ccccc1)N1CCCCC1c1ccccc1 (configuration not stated)
## Result 13.32

## Task What about this compound? `CN(CCCc1ccccc1)C(=O)N(C)CCc1ccccc1`
## Result 5.74

---

Some compounds, each annotated with its measured Activity.
species on record: Gallus gallus; assay: Activation of actin-stimulated chicken gizzard smooth muscle myosin S1 fragment ATPase activity at 100 uM after 10 mins by spectrophotometric analysis

Guide cases for Activity, answers given:
{"structure-as-smiles": "COC(=O)N1CCN(Cc2cccc(NC(=O)Nc3ccc(C)nc3)c2F)CC1", "Activity": "-5.5%"}
{"structure-as-smiles": "O=C(NCCCc1ccccc1)NCCc1ccccc1", "Activity": "-4.7%"}
{"structure-as-smiles": "Cc1ccc2c(c1)C(=O)[C@]1(O)CCN(c3ccccc3)C1=N2", "Activity": "-35.7%"}
{"structure-as-smiles": "O=C(NCCCc1ccccc1)NCc1ccccc1", "Activity": "-3.7%"}
{"structure-as-smiles": "O=C(NCCCc1ccccc1)NCCN1CCOCC1", "Activity": "3.1%"}

## Task Name the reported Activity value associated with the compound `O=C(NCCCc1ccccc1)NCC1CCOCC1`
## Result 5.1%

---

organism: Bos taurus; assay: Activation of actin-stimulated bovine cardiac myosin S1 fragment ATPase activity in sarcomere at 10 uM after 10 mins by spectrophotometric analysis
Some molecules, each annotated with its measured Activity.
Expressed in %, but write only the number.

Guide cases for Activity, answers given:
{"structure-as-smiles": "O=C(NCCCCc1ccccc1)NCCN1CCOCC1", "unit-text": "%", "data-value": 42.7}
{"structure-as-smiles": "O=C(NCCCc1ccccc1)NCCc1cccs1", "unit-text": "%", "data-value": 29.6}
{"structure-as-smiles": "O=C(NCCCc1ccccc1)NCCN1CCOCC1", "unit-text": "%", "data-value": 44}

Now let's try a different one.
## Task Name the reported Activity value associated with the molecule `O=C(NCCCc1ccccc1)NCc1cccs1`
## Result 47.6

---

Some molecules, each annotated with its measured Activity.
species: Oryctolagus cuniculus; assay: Activation of actin-stimulated rabbit psoas skeletal muscle myosin S1 fragment ATPase activity at 100 uM after 10 mins by spectrophotometric analysis
Expressed in %, but write only the number.

{"structure-as-smiles": "O=C(NCCCc1ccccc1)NCC1CCOCC1", "unit-text": "%", "Activity": 4.4}
{"structure-as-smiles": "O=C(NCCCc1ccccc1)NCCc1ccccc1", "unit-text": "%", "Activity": -2.1}

## Task Name the reported Activity value associated with the molecule `O=C(NCCCc1ccccc1)NCCN1CCOCC1`
## Result -5.3
